# maps each entry to its IC50
Target: human recombinant TAK1-TAB1 Kinase (TAK1 (1-303) and TAB1 (437-end)) (Homo sapiens (Human))
Assay: TAK1 biochemical ADP-Glo kinase assay
Details: 10 μM ATP, MBP substrate; read-out: TAK1 Mean IC50 (nM) @ 10 μM ATP
parameter: IC50 (nM)

C[C@@H]1CCCCNC(=O)c2cccc(c2)C(=O)Nc2nc3cccc(S(=O)(=O)N(C)C)c3n21	2
C[C@H]1CCCCNC(=O)c2cccc(c2)C(=O)/N=C2\Nc3cccc(C(=O)N4CCC5(CCO5)C4)c3N21 (single isomer, unassigned) [Example 120]	5
CC1CCCCNC(=O)c2cccc(c2)C(=O)Nc2nc3cccc(C(=O)N(C)C)c3n21 (single isomer, unassigned) [Example 31]	3
CC1CCCCNC(=O)c2cccc(c2)C(=O)/N=C2\Nc3cccc(-c4nccn4C)c3N21 (single isomer, unassigned) [Example 135]	6
CCC1CCCCNC(=O)c2cccc(c2)C(=O)Nc2nc3cccc(C(=O)N(C)C)c3n21 (single isomer, unassigned) [Example 67]	5
COC1(C)CN(C(=O)c2cccc3c2N2/C(=N/C(=O)c4cccc(c4)C(=O)NCCCCC2C)N3)C1 (stereo not drawn) [Example 49]	3

* * *

Molecular target: human recombinant TAK1-TAB1 Kinase (TAK1 (1-303) and TAB1 (437-end)) (Homo sapiens (Human), UniProt O43318)
Sequence (O43318 other isoform, or with tags, fused parts or gaps): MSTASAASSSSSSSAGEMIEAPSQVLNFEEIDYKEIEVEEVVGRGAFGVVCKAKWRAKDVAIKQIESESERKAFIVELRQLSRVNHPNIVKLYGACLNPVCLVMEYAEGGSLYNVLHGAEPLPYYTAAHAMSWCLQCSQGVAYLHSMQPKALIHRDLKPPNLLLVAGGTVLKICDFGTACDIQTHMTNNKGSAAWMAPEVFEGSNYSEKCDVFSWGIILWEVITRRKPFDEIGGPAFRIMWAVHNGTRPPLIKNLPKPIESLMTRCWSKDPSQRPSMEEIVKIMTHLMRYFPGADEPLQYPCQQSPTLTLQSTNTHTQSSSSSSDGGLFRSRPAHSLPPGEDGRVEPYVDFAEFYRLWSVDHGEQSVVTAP
Experiment: TAK1 biochemical ADP-Glo kinase assay
Conditions: 10 μM ATP, MBP substrate; read-out: TAK1 Mean IC50 (nM) @ 10 μM ATP
Some compounds, each annotated with its measured IC50.
parameter: IC50

CC1CCCCNC(=O)c2cccc(c2)C(=O)/N=C2\Nc3cccc(-c4cc[nH]c(=O)c4)c3N21 (single isomer, unassigned) [Example 63]	8 nM
CN1C[C@@H]2C[C@H]1CN2C(=O)c1cccc2c1N1CCCCCNC(=O)c3cccc(c3)C(=O)/N=C/1N2 [Example 22]	9 nM
CC(C)N(C)C(=O)c1cccc2c1N1/C(=N/C(=O)c3cccc(c3)C(=O)NCCCCC1C)N2 (centres unmarked) [Example 47]	1 nM
CC1CCCCNC(=O)c2cccc(c2)C(=O)/N=C2\Nc3cccc(C(=O)N(C)C4CC(O)C4)c3N21 (centres unmarked) [Example 41]	3 nM
O=C1NCCCCCn2c(nc3cc(C(=O)N4CCN(C5COC5)CC4)ccc32)NC(=O)c2cccc1c2 [Example 12]	1 nM
C[C@H]1CCCCNC(=O)c2cccc(c2)C(=O)/N=C2\Nc3cccc(N4CCN(C)C4=O)c3N21 [Example 74]	7 nM
Cc1noc(-c2cccc3c2N2/C(=N/C(=O)c4cccc(c4)C(=O)NCCCC[C@@H]2C)N3)n1 [Example 147]	5 nM
CN1CCN(Cc2ccc3c(c2)nc2n3CCCCCNC(=O)c3cccc(n3)C(=O)N2)CC1 [Example 102]	9 nM

* * *

Biological target: human recombinant TAK1-TAB1 Kinase (TAK1 (1-303) and TAB1 (437-end)) (Homo sapiens (Human))
Assay: TAK1 biochemical ADP-Glo kinase assay
Details: 1 mM ATP, MBP substrate; read-out: TAK1 Mean IC50 (nM) @ 1 mM ATP
parameter: IC50 (nM)

C[C@H]1CCCCNC(=O)c2cccc(c2)C(=O)/N=C2\Nc3cc(CN4CCOCC4)cc(C(=O)N(C)C)c3N21 [Example 125]	7
CC1CCCCNC(=O)c2cccc(c2)C(=O)/N=C2\Nc3cccc(-c4ncnn4C(F)F)c3N21 (single isomer, unassigned) [Example 140]	6
C[C@H]1CCCCNC(=O)c2cccc(c2)C(=O)/N=C2\Nc3cccc(C(=O)N4CCC5(COC5)C4)c3N21 [Example 115]	11
C[C@H]1CCCCNC(=O)c2cccc(c2)C(=O)/N=C2\Nc3cccc(N4CCC(F)C4=O)c3N21 (stereo partly drawn) [Example 146]	9
CC1CCCCNC(=O)c2cccc(c2)C(=O)/N=C2\Nc3cccc(C(=O)N4CC5(CCO5)C4)c3N21 (single isomer, unassigned) [Example 79]	7
C[C@H]1CCCCNC(=O)c2cccc(c2)C(=O)Nc2nc3ccc(Cl)c(C(=O)N(C)C)c3n21 (single isomer, unassigned) [Example 54]	25

* * *

Listing: log10(IC50) of selected compounds
Biological target: human recombinant TAK1-TAB1 Kinase (TAK1 (1-303) and TAB1 (437-end)) (Homo sapiens (Human))
Assay: TAK1 biochemical ADP-Glo kinase assay
Details: 10 μM ATP, MBP substrate; read-out: TAK1 Mean IC50 (nM) @ 10 μM ATP
parameter: log10(IC50) (log10 of the value in nM)

C[C@H]1CCCCNC(=O)c2cccc(c2)C(=O)/N=C2\Nc3cc(CN4CCN(C)CC4)cc(C(=O)N(C)C)c3N21	0.85
CC1CCCCNC(=O)c2cccc(c2)C(=O)Nc2nc3cccc(-c4nccn4C(F)F)c3n21 (stereo not drawn) [Example 90]	0.78
CC1CCCCNC(=O)c2cccc(c2)C(=O)Nc2nc3cccc(C(=O)N4CCNCC4)c3n21 (stereo not drawn)	0.70
O=C1NCCCCCn2c(nc3cc(C(=O)N4CCNCC4)ccc32)NC(=O)c2cccc1c2	0.48
CNC(=O)c1cccc2nc3n(c12)C(C)CCCCNC(=O)c1cccc(c1)C(=O)N3 (stereo not drawn)	0.30
CN(C)[C@@H]1CCN(C(=O)c2cccc3c2N2CCCCCNC(=O)c4cccc(c4)C(=O)/N=C/2N3)C1	0.90
C[C@H]1CCCCNC(=O)c2cccc(c2)C(=O)/N=C2\Nc3ccnc(N4CCCC4=O)c3N21	0.85
C[C@@H]1CCCCNC(=O)c2cccc(c2)C(=O)Nc2nc3ccc(Cl)c(C(=O)N(C)C)c3n21 [Example 56]	1.20
O=C1NCCCCCn2c(nc3ccccc32)NC(=O)c2cccc1c2	0.48
C[C@@H]1CCCCNC(=O)c2cccc(c2)C(=O)Nc2nc3cccc(-c4ncnn4C)c3n21	0.48
C[C@H]1CCCCNC(=O)c2cccc(c2)C(=O)/N=C2\Nc3cccc(C(=O)N4CC(C)(O)C4)c3N21	0.78
CC1CCCCNC(=O)c2cccc(c2)C(=O)/N=C2\Nc3cccc(C4CCCNC4=O)c3N21 (single isomer, unassigned) [Example 60]	0.70
CC(C)(C)OC(=O)N1CCN(C(=O)c2cccc3nc4n(c23)CCCCCNC(=O)c2cccc(c2)C(=O)N4)CC1	1.04
Cc1nnc(-c2cccc3nc4n(c23)[C@H](C)CCCCNC(=O)c2cccc(c2)C(=O)N4)n1C	0.48
C[C@H]1CCCCNC(=O)c2cccc(c2)C(=O)Nc2nc3ccc(Cl)c(C(=O)N(C)C)c3n21 (single isomer, unassigned) [Example 53]	2.41

* * *

Molecular target: human recombinant TAK1-TAB1 Kinase (TAK1 (1-303) and TAB1 (437-end)) (Homo sapiens (Human), UniProt O43318)
Assay: TAK1 biochemical ADP-Glo kinase assay
Details: 1 mM ATP, MBP substrate; read-out: TAK1 Mean IC50 (nM) @ 1 mM ATP
parameter: log10(IC50) (log10 of the value in nM)

Cc1nnc(-c2cccc3c2N2/C(=N/C(=O)c4cccc(c4)C(=O)NCCCCC2C)N3)o1 (single isomer, unassigned) [Example 133]	1.08
CC1CCCCNC(=O)c2nc(cs2)C(=O)/N=C2\Nc3cccc(C(=O)N(C)C)c3N21 (single isomer, unassigned) [Example 109]	2.06
Cc1nnc(-c2cccc3c2N2/C(=N/C(=O)c4cccc(c4)C(=O)NCCCC[C@@H]2C)N3)n1C	0.85
C[C@H]1CCCCNC(=O)c2cccc(c2)C(=O)/N=C2\Nc3ccnc(N4CCN(C)C4=O)c3N21	1.43
C[C@H]1CCCCNC(=O)c2cccc(c2)C(=O)/N=C2\Nc3cccc(C(=O)N4CC5(CCCO5)C4)c3N21	0.48
C[C@H]1CCCCNC(=O)c2cccc(c2)C(=O)/N=C2\Nc3cccc(C(=O)N4CCC5(CCO5)C4)c3N21 (single isomer, unassigned) [Example 121]	1.28

* * *

Assay: Solubility assay in phosphate buffer
Conditions: phosphate buffer, pH 7.4, aqueous buffer, kinetic from dmso stock
parameter: solubility (µM)

CC1CCCCNC(=O)c2cccc(c2)C(=O)/N=C2\Nc3cccc(C(=O)N4CC5(CCO5)C4)c3N21 (single isomer, unassigned) [Example 79]	90

* * *

Property: IC50; scope: individual molecules
Biological target: human recombinant TAK1-TAB1 Kinase (TAK1 (1-303) and TAB1 (437-end)) (Homo sapiens (Human))
Assay: TAK1 biochemical ADP-Glo kinase assay
Settings: 10 μM ATP, MBP substrate; read-out: TAK1 Mean IC50 (nM) @ 10 μM ATP
parameter: IC50

CC1CCCCNC(=O)c2cccc(c2)C(=O)Nc2nc3cccc(-c4ccc[nH]c4=O)c3n21 (single isomer, unassigned) [Example 35]	5 nM
CC1CCCCNC(=O)c2cccc(c2)C(=O)/N=C2\Nc3cccc(-c4ncn(C(F)F)n4)c3N21 (single isomer, unassigned) [Example 138]	8 nM
CC1CCCCNC(=O)c2cccc(c2)C(=O)/N=C2\Nc3cccc(C(=O)N4CC5(COC5)C4)c3N21 (stereo not shown)	7 nM
C[C@H]1CCCCNC(=O)c2cccc(c2)C(=O)/N=C2\Nc3ccnc(N4CCC(F)C4=O)c3N21 (single isomer, unassigned) [Example 127]	5 nM
CC1CCCCNC(=O)c2cccc(c2)C(=O)/N=C2\Nc3cccc(C(=O)N(C)CCF)c3N21 (single isomer, unassigned) [Example 71]	6 nM
O=C1/N=C2\Nc3ccc(C(=O)N4CCN(C5COC5)CC4)cc3N2CCCCCNC(=O)c2cccc1c2	5 nM
CC1CCCCNC(=O)c2cccc(c2)C(=O)/N=C2\Nc3cccc(-c4cc[nH]c(=O)c4)c3N21 (single isomer, unassigned) [Example 62]	12 nM
CC1CCCCNC(=O)c2cccc(c2)C(=O)/N=C2\Nc3cccc(C(=O)N4CCOC[C@H]4C)c3N21 (single isomer, unassigned) [Example 75]	11 nM
C[C@H]1CCCCNC(=O)c2cccc(c2)C(=O)/N=C2\Nc3cccc(-c4cn(C)nn4)c3N21	5 nM
COC1(C)CN(C(=O)c2cccc3c2N2/C(=N/C(=O)c4cccc(c4)C(=O)NCCCCC2C)N3)C1 (stereo not shown) [Example 50]	3 nM
